TEST NAME: folding stability dG unfold (combined trypsin and chymotrypsin); higher = more stable
Outcome label depends on folding stability dG unfold relative to 0.9 kcal/mol: at/above gives criterion met, below gives criterion not met.

Solved entries:
{"columns": ["ORDERED RESIDUES", "LABEL VALUE"],
 "data": [
  ["SAGGSAGGSAGGNTRYIPMPPDDIEELIEEAKDEGIDNVIIHNPENGRWIKITGDKIKPVSAGGSAGGSAGG [r7_564_TrROS]", "criterion not met"],
  ["SAGGMVRVTVVPTPGRAGEPVTLVIEHPDGTRTVPLPPDTSPEEARAAAERLAEEEGLDVAEVVFEASAGGS [r16_753_JUSTAS]", "criterion not met"]
]}

Query block: Record SAGGSAGGSAGGKVAIVTASPEKAKEIAKKAGIKDVIIIPKNKPELLGPNVDKVILVAEKSAGGSAGGSAGG [r7_381_TrMRF] ; criterion: folding stability dG unfold no lower than 0.9 kcal/mol. Met?
Result block: criterion not met

Query block: Record SAGGSAGGSAGGAIEEARDLAKEGGPWEATIPVYDPNGGPKTIKIRVEVERDPENGKFKSAGGSAGGSAGGS [r10_346_TrROS] ; criterion: folding stability dG unfold no lower than 0.9 kcal/mol. Met?
Result block: criterion not met

Query block: Record SAGGRLVRIKVDIYSPGDGEPHEFEFLLHVDANGSVEIYFPNGKRIRIPPNMKVKIKDIEVLDPDQISAGGS [r16_223_TrROS] ; criterion: folding stability dG unfold no lower than 0.9 kcal/mol. Met?
Result block: criterion met

Query block: Record SAGGSAGGSAKPLTVEEIIKKLNLPPNVEIVDVKVDYGKTENKPIIVLVLKTKDKPYLPVFASAGGSAGGSA [r18_354_TrMRF] ; criterion: folding stability dG unfold no lower than 0.9 kcal/mol. Met?
Result block: criterion met

Query block: Record SAGGSAGGWIRVDKVEPNPNDDMATVSVEMEDPGDGKKKKFNMTMPSDNPELIDKLPPGDWIEFSAGGSAGG [r6_979_TrROS] ; criterion: folding stability dG unfold no lower than 0.9 kcal/mol. Met?
Result block: criterion not met

Query block: Record SAGGSDYYIRVRIRIYKPTPEDMQEGKPIPEVEIWFPFDSVEEIKEFLENLPPNIKVDVDWFPPEDSAGGSA [r2_25_TrROS] ; criterion: folding stability dG unfold no lower than 0.9 kcal/mol. Met?
Result block: criterion met

Query block: Record SFKLPEGEEREFRLPDVPIEIEVDDGPGMIKINIYPPENPGKPVFEHEVPPGEIKPIEIPPELRDAMKKQSA [r9_1051_TrROS] ; criterion: folding stability dG unfold no lower than 0.9 kcal/mol. Met?
Result block: criterion not met

Query block: Record SAGGSAGGSANRKVIQFDSPEEILEAIDEAPEDDPVIIEWHDPDGGEPWWIKFDGDEIELIMSAGGSAGGSA [r18_407_TrROS] ; criterion: folding stability dG unfold no lower than 0.9 kcal/mol. Met?
Result block: criterion not met

Query block: Record SAGGSAGGSMEVTYDEETGELTVRIEVDGKTLTLKFKSIEDLKAALEKLGIDVDDVKIVEIEPSAGGSAGGS [r12_834_TrROS_Hall] ; criterion: folding stability dG unfold no lower than 0.9 kcal/mol. Met?
Result block: criterion met

Query block: Record SGSSYLPLEDVKTEWKKNPNSDVYNYTTFLQTPSGEPISVTYDPKTGKITFNLPPGTTWRPGKKSEVKLESA [r9_509_JUSTAS] ; criterion: folding stability dG unfold no lower than 0.9 kcal/mol. Met?
Result block: criterion not met

Query block: Record SAMKKLRELLEKEFPDRPIKSVKNLGEKLAPDGTPYYVVELTFPDGSTITVTITSEEKPEILEAIEEEESAG [r14_143_JUSTAS] ; criterion: folding stability dG unfold no lower than 0.9 kcal/mol. Met?
Result block: criterion met

Query block: Record SAGGSAGGSAGGGSSMITLERESEPGETFEFNFPGVSEVTVTEVIPGDGKVTVKVEVTSPSAGGSAGGSAGG [r7_292_JUSTAS] ; criterion: folding stability dG unfold no lower than 0.9 kcal/mol. Met?
Result block: criterion not met

Query block: Record SAGGSAGGSAGGALLVTPTPDGYIARVKDPNSDSWTVVPLSPEELEELAAAGVPTVEVLPSAGGSAGGSAGG [r7_266_JUSTAS] ; criterion: folding stability dG unfold no lower than 0.9 kcal/mol. Met?
Result block: criterion met

###

TEST NAME: folding stability dG unfold from chymotrypsin proteolysis; higher = more stable
QUANTITY: folding stability dG unfold
Answer format reminder: number followed by unit.

{"columns": ["ORDERED RESIDUES", "EXPERIMENTAL RESULT"],
 "data": [
  ["SAGGGSDTVPPVPKATITFTLPAESPEEAEAAAEEIARELEEEGGIPATATVTTDPETGTVTVTITLESAGG [r13_517_TrMRF]", "0.672 kcal/mol"],
  ["SAGGGSMYDPETGTLRDENGNFFRTEEKKIPEVVIELPIELPDNTTLVIPVKFRTEEEAEKAVEELLSAGGS [r8_440_JUSTAS]", "0.0268 kcal/mol"],
  ["SAGGSAGGSAETFTLPGGYTITVEPTEGGVKVTITHPDGSKGEVELGPTEPLVVDPDGATILASAGGSAGGS [r12_281_TrMRF]", "1.66 kcal/mol"]
]}

From here, focus on the item given below.
Lookup result for SAGGMKVTITVTDPEAFRAAVEALPEVPPEQVSTSPLPGNSYTATFPSEKAVELLKAAGVPITEIAASAGGS [r16_381_JUSTAS] ; measured folding stability dG unfold: 0.63 kcal/mol

###

TEST NAME: folding stability dG unfold (combined trypsin and chymotrypsin); higher = more stable
Please use the following folding stability dG unfold ranges when assigning a class: label 0 = under 0.5 kcal/mol, label 1 = from 0.5 kcal/mol up to 3 kcal/mol, label 2 = 3 kcal/mol and over

Solved entries:
{"columns": ["ORDERED RESIDUES", "LABEL VALUE"],
 "data": [
  ["SAGGSATTTEKWTIGDPSGPPRTVDLTKLPNSDEYLITVTYPDPNHTETGLLSEEEIKKIPNAVPKSAGGSA [r15_622_JUSTAS]", "label 0"],
  ["SAGGKPKEIKIKVEVEEKEVNGKKYLVVKIELEVDGKKIEIELVVEMSEEEKEKAKKLAEELLKKLKSAGGS [r8_480_TrROS_Hall]", "label 1"],
  ["SAGGSAGGAPQGSTSSLTDPSTGLRYASTNPPGTSSSFTFPPSVSPEEVAARLRAQGVAGLNLSSAGGSAGG [r6_83_JUSTAS]", "label 0"],
  ["SAGGSAGGSMKLVTVKMKRPNGPVELTPVLPVDPSETLEEVKERVLELYPGAEITEITVTPDESAGGSAGGS [r12_738_JUSTAS]", "label 0"],
  ["SAGGSAGGSEVKTITLTIKNKETNKEIKIEVQVFKNEDGELVFIAKAEITYNGKKYTFTVLLPSAGGSAGGS [r12_619_TrROS_Hall]", "label 2"],
  ["SAGGSAGGSAGMTVPTSVEVSPDGTVRVRQLRWVRHGDGWRPFTFTVTLPISDDALKALKSAGGSAGGSAGG [r17_415_TrMRF]", "label 1"]
]}

Query block: Classify this sequence: SAGGSAGGSAGKKITIPNLDVMRNPDDGMAFIQFGGQMIMIPPNVKIEQDPNGWMEIELPSAGGSAGGSAGG [r17_34_TrROS]
Result block: label 0

Query block: Classify this sequence: SAGGSAGLTLTFGDKEITLTPNPDTDTFTGTYPDGKPFTFKLTDDELYITYPDGTKEKIPLKDIKNSAGGSA [r15_448_TrMRF]
Result block: label 1

Query block: Classify this sequence: MSEEERKKAAEERSKPPPVEIKVEVEVVKNEDGEEYLRVRVTVVDPETGEVIEEREFVVRREDLEELLKALS [r1_415_TrROS_Hall]
Result block: label 2

Query block: Classify this sequence: SAGKVKLTIMIHPMRKNGKPRYYVMVKIEIPGGPKAEIMFPFDSPEQAKNLLEDLGLKVEPEDISIMRWSAG [r5_233_TrROS]
Result block: label 1

Query block: Classify this sequence: SAGGSAGGSADNKPFKVEIDVEHHPPNGYYRVTIEWPDGREIVVWMPGNPDEAKDQAKELISAGGSAGGSAG [r3_143_TrROS]
Result block: label 1

Query block: Classify this sequence: SAGGSAGGSAGGGSPIPTTTLTTVTYGSSSSLLSSAKGPSSVPYSLPSSLGSSVSTTVVGSAGGSAGGSAGG [r7_141_JUSTAS]
Result block: label 0

Query block: Classify this sequence: SAMKTEVIEFENFTIVVEELPDGSKKIIILFENPEKAKEALEKNPWIKEFIAEAEKEGYDVELAVVEPESAG [r14_873_TrMRF]
Result block: label 2

Query block: Classify this sequence: SAGGSAGGVRVRVVYPDGEPIGEIDIQLPPEMPQDQRQVKELAENIASRFKENGRKVKVEIEPPSAGGSAGG [r6_884_TrROS]
Result block: label 0

Origin of measurements: the supplement of paper PMC12764529
